# EXPERIMENTAL_TARGET: CFP1 CXXC Y216A (Homo sapiens, UniProt Q9P0U4 161-222, Y216A)
# Sequence (Q9P0U4 161-222 Y216A): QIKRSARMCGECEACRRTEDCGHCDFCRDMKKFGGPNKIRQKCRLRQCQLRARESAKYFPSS
# METHOD: ITC
MEASURED_PROPERTY: Kd (µM)
The reply should contain only the number, in µM.

So for CCGG1 (dsDNA) DNA 1: GCCACCGGTGGC DNA 2: GCCACCGGTGGC , the logged Kd turned out to be 11

Values were extracted from paper PMC3072069.
